# reported composite z-score; entries follow
target: Fibroblast growth factor 10 (Homo sapiens) (UniProt O15520); test: FGF10 binders on small-molecule microarrays, primary screen, biochemical, small-molecule microarray, 635 nm fluorescence (AID 1102); conditions: FGF10 binding, fluorescence 635 nm, higher = more signal
Sequence (O15520 whole entry, looked up): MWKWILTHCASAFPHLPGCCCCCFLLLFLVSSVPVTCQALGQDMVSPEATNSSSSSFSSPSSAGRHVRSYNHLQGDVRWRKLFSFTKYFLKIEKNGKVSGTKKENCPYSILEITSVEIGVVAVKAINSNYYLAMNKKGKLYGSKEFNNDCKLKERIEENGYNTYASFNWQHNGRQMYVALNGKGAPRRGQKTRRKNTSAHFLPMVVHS
reported_endpoint: composite z-score

1. C=C(C(=O)CC[C@H](OC(=O)c1cccnc1)c1cccc(OCCO)c1)C(C)C    -0.64
2. CCOC(=CC(=O)OC)CC(O)c1cccc(Cl)c1 (stereo not drawn)    -0.617
3. COc1cc2c(cc1OC)CN(C(=O)[C@H]1[C@@H]3C(=O)O[C@@H](c4ccccc4)[C@@H](c4ccccc4)N3[C@@H](c3ccc(OCCO)cc3)[C@]13C(=O)Nc1ccc(C#CCCO)cc13)CC2    1.4
4. Cc1ccc(S[C@]2(C(=O)NCC(C)C)CC(=O)N(Cc3ccccc3Cl)[C@@H]2c2ccc(CO)cc2I)cc1    -0.85
5. CC(C)OC(=O)CC(=O)CC(O)c1cccc(C#N)c1 (stereo not drawn)    0.632
6. COc1ccc([Si](C)(C)[C@H]2[C@H](CCn3cc([C@H](O)c4ccccc4)nn3)O[C@@]3(C(=O)N(Cc4ccc(N5CCOC5=O)cc4)c4ccccc43)[C@@H]2C)cc1    -1.23
7. CCOC(=O)C1=C[C@@H](c2ccccc2)N(S(=O)(=O)c2ccc(C)cc2)[C@H]1c1cccc(Cl)c1    0.839
8. CN(C)CCCNC(=O)[C@@]1(c2ccc([N+](=O)[O-])cc2)CC(=O)N(CC23CC4CC(CC(C4)C2)C3)[C@@H]1c1ccc(CO)cc1    0.239
